Test: Stability of the analytes in human plasma at QC levels
Format: in vitro ADME
Conditions: high QC; 40 days, −40 °C; human plasma; n = 5

COMPOUND	Long-term MCM ± SD
C[C@H]1C[C@H]2[C@@H]3CCC4=CC(=O)C=C[C@]4(C)[C@@]3(F)[C@@H](O)C[C@]2(C)[C@@]1(O)C(=O)COP(=O)([O-])[O-].[Na+].[Na+] [BSP, betamethasone sodium phosphate]	320.0 ± 10.35 × 10^−9 mol·dm^−3
C[C@H]1C[C@H]2[C@@H]3CCC4=CC(=O)C=C[C@]4(C)[C@@]3(F)[C@@H](O)C[C@]2(C)[C@@]1(O)C(=O)CO	52.55 ± 2.816 × 10^−9 mol·dm^−3
CCC(=O)O[C@]1(C(=O)CO)[C@@H](C)C[C@H]2[C@@H]3CCC4=CC(=O)C=C[C@]4(C)[C@@]3(F)[C@@H](O)C[C@@]21C [B17P, betamethasone 17-monopropionate]	4.185 ± 0.616 × 10^−9 mol·dm^−3
CCC(=O)OCC(=O)[C@@]1(OC(=O)CC)[C@@H](C)C[C@H]2[C@@H]3CCC4=CC(=O)C=C[C@]4(C)[C@@]3(F)[C@@H](O)C[C@@]21C [BDP, betamethasone dipropionate]	46.43 ± 1.399 × 10^−9 mol·dm^−3
CCC(=O)OCC(=O)[C@@]1(O)[C@@H](C)C[C@H]2[C@@H]3CCC4=CC(=O)C=C[C@]4(C)[C@@]3(F)[C@@H](O)C[C@@]21C [B21P, betamethasone 21-monopropionate]	3.924 ± 0.078 × 10^−9 mol·dm^−3
